meta.source: paper PMC6270921

Documented IC50 across a set of molecules
tested on: DU-145 prostate cancer cell line; test: Cell viability, sulforhodamine B assay; format: cell-based; details: Homo sapiens, 72 h exposure, dilutions 12.5 to 100 μM, read-out: Cytotoxicity IC50, DU145

CC1=CC[C@H]2C(C)(C)CCC[C@]2(C)[C@H]1CO [Compound 3, drimenol] : > 200 µM
CC1(C)CCC[C@]2(C)[C@H](CO)C(CO)=CC[C@@H]12 [Compound 6, 9α-drimendiol] : > 200 µM
CC1(C)CCC[C@]2(C)[C@H]3O[C@@]3(C)C(=O)C[C@@H]12 [Compound 9] : 93.5 µM
CC1(C)CCC[C@]2(C)C3=C(CC[C@@H]12)COC3=O [Compound 5, isodrimenin] : 90.5 µM

Continue with the next molecule.
Read the entry CC1(C)CCC[C@]2(C)C3=C(CC[C@@H]12)C(=O)OC3 [Compound 4, confertifolin] and write its reported IC50.
> 200 µM

* * *

Documented IC50 across a set of compounds
tested on: PC-3 prostate cancer cell line; assay: Cell viability, sulforhodamine B assay; type: cell-based; settings: Homo sapiens, 72 h exposure, dilutions 12.5 to 100 μM, read-out: Cytotoxicity IC50, PC-3

Use these answered entries as a reference point.
CC1(C)CCC[C@]2(C)[C@H](CO)C(CO)=CC[C@@H]12 : > 200 µM
CC1(C)CCC[C@]2(C)[C@@H](C=O)C(C=O)=CC[C@@H]12 : 89.2 µM
CC1(C)CCC[C@]2(C)[C@H](C=O)C(C=O)=CC[C@@H]12 : > 200 µM
CC(=O)O[C@H]1C[C@H]2C(C)(C)CCC[C@]2(C)C=C1C : > 200 µM
CC1(C)CCC[C@]2(C)[C@H]3O[C@@]3(C)C(=O)C[C@@H]12 : 97.5 µM
CC1=CC[C@H]2C(C)(C)CCC[C@]2(C)[C@H]1CO : > 200 µM
CC(=O)O[C@H]1C[C@H]2C(C)(C)CCC[C@]2(C)[C@@H]2O[C@]12C : > 200 µM
CC1(C)CCC[C@]2(C)C3=C(CC[C@@H]12)C(=O)OC3 : > 200 µM

Read the entry CC1(C)CCC[C@]2(C)[C@@H](C3OCCO3)C(C=O)=CC[C@@H]12 and write its reported IC50.
65.4 µM

Read the entry CC1(C)CCC[C@]2(C)[C@@H](CO)C(CO)=CC[C@@H]12 and write its reported IC50.
> 200 µM

* * *

test system: DU-145 prostate cancer cell line; experiment: Cell viability, sulforhodamine B assay; format: cell-based; details: Homo sapiens, 72 h exposure, dilutions 12.5 to 100 μM, read-out: Cytotoxicity IC50, DU145
Documented IC50 across a set of molecules

Read the entry CC1(C)CCC[C@]2(C)[C@H](C=O)C(C=O)=CC[C@@H]12 and write its reported IC50.
> 200 µM

* * *

tested on: DU-145 prostate cancer cell line; assay: Cell viability, sulforhodamine B assay; type: cell-based; conditions: Homo sapiens, 72 h exposure, dilutions 12.5 to 100 μM, read-out: Cytotoxicity IC50, DU145
Parameter Measured: IC50

Use these answered entries as a reference point.
CC1(C)CCCC2(C)C1CC(=O)C1(C)OC12 (stereo not drawn) : > 200 µM
CC1(C)CCC[C@]2(C)[C@@H](C3OCCO3)C(C=O)=CC[C@@H]12 : 70.6 µM
CC(=O)O[C@H]1C[C@H]2C(C)(C)CCC[C@]2(C)C=C1C : > 200 µM

Read the entry CC1(C)CCC[C@]2(C)[C@@H](CO)C(CO)=CC[C@@H]12 and write its reported IC50.
> 200 µM

Read the entry CC1(C)CCC[C@]2(C)[C@@H](C=O)C(C=O)=CC[C@@H]12 and write its reported IC50.
71.4 µM

Read the entry CC(=O)O[C@H]1C[C@H]2C(C)(C)CCC[C@]2(C)[C@@H]2O[C@]12C and write its reported IC50.
> 200 µM
